Let's look at some compounds and their measured pIC50.
TESTED_ON: human β-Secretase (sBACE-Fc, soluble part AA 1-AA 460) (Homo sapiens (Human), UniProt P56817)
Sequence (P56817 22-460): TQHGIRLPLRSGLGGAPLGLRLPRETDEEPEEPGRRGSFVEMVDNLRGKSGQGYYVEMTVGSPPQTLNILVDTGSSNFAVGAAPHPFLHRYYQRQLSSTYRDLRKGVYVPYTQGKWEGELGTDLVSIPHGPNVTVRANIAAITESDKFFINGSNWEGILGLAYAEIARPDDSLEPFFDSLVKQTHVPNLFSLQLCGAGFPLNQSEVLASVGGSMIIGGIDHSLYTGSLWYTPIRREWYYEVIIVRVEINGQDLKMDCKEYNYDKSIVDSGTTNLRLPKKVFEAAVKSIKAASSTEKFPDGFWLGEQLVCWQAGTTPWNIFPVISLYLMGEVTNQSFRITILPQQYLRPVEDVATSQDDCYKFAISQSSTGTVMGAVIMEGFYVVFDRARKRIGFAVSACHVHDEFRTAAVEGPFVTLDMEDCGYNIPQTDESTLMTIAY
PROTOCOL_TEXT: TR-FRET assay
Format: biochemical
CONDITION: standard TR-FRET assay (values without footnote a)
pIC50: −log10 of the molar value.
PROPERTY_MEASURED: pIC50

> print(dat)
                                   compound  property.measured  quantitative.readout
1  CC1=NC2(N=C1N)c1cc(Br)ccc1C[C@]21CC[C@@H](OC(C)C)CC1 (stereo partly shown)              pIC50                  5.43
2  CC1=N[C@@]2(N=C1N)c1cc(-c3cc(Cl)cc(C#N)c3)ccc1C[C@]21CC[C@@H](O)CC1 (single isomer, unassigned; isomer 2) [15, isomer 2]              pIC50                  6.11
3  CC1=NC2(N=C1N)c1cc(OCCCF)ccc1C[C@]21CC[C@@H](OC(C)C)CC1 (stereo partly shown)              pIC50                  6.60
4  CC1=N[C@@]2(N=C1N)c1cc(OCCCF)ccc1C[C@]21CC[C@@H](OC(F)F)CC1 (single isomer, unassigned; isomer 2) [13, isomer 2]              pIC50                  5.54
5  CC1=N[C@@]2(N=C1N)c1cc(Br)ccc1C[C@]21CC[C@@H](O)CC1 (single isomer, unassigned; isomer 1) [5, isomer 1]              pIC50                  6.57
6  CC1=N[C@@]2(N=C1N)c1cc(OCC(C)C)ccc1C[C@]21CC[C@@H](O)CC1 (single isomer, unassigned; isomer 1) [2, isomer 1]              pIC50                  7.89
7  CO[C@H]1CC[C@]2(CC1)Cc1ccc(O)cc1[C@@]21N=C(C)C(N)=N1              pIC50                  5.89
